Test system: Saccharomyces cerevisiae
Test: protein stability index of tFT-peptide fusion (C-terminal peptide) (PSI (0-1 scale)); higher = more stable (slower turnover)
Details: genetic background: wild type; temperature: 30 C
metricName: protein stability index
Form rule: numeric answer, no unit written next to it.

Q: Give protein stability index; test system Saccharomyces cerevisiae; sequence RNNRQAREKKKQ
Result: 0.701

Q: State the measured protein stability index (Saccharomyces cerevisiae) of LHSFLLSVGRGF
Result: 0.681

Q: Report value only: protein stability index, Saccharomyces cerevisiae, PPPPPLSLLLPP
Result: 0.703

Q: Supply protein stability index measured with Saccharomyces cerevisiae for PQPPTPLTPTPP .
Result: 0.697

Q: Provide Saccharomyces cerevisiae protein stability index reading for TMSPPSTSGGMG .
Result: 0.686

Q: Write protein stability index of VGCSDFSAIVLD ; system used: Saccharomyces cerevisiae
Result: 0.713

Q: Look up and report protein stability index, with Saccharomyces cerevisiae as system, for AGCGGGVTASGA
Result: 0.688

Q: Give Saccharomyces cerevisiae protein stability index for the following sequence: SLRLFIHTIFSR
Result: 0.695

Q: Look up Saccharomyces cerevisiae data: protein stability index of SHGEDTACNWGL , then report it.
Result: 0.714

Q: Provide measured protein stability index on Saccharomyces cerevisiae for PFSFSSLSASVF please.
Result: 0.703

Q: Answer with protein stability index of LSPRTMYHAYPV measured for Saccharomyces cerevisiae.
Result: 0.712

Q: State the measured protein stability index (Saccharomyces cerevisiae) of TEVSDVSWSEVW
Result: 0.696

Q: With Saccharomyces cerevisiae as the test system, provide measured protein stability index for this sequence: SQTPPPAPSGHH
Result: 0.69

Q: Please report the measured protein stability index for RNRRKTLMETRS tested on Saccharomyces cerevisiae.
Result: 0.695

Q: Specify protein stability index for LSKTRRPKSADM , system Saccharomyces cerevisiae.
Result: 0.7

Q: Report measured protein stability index on Saccharomyces cerevisiae; entry: EEHWDCEYVAFH
Result: 0.719

Q: Lab note: Saccharomyces cerevisiae assay, enter protein stability index for FRHSSAVLAPGV here
Result: 0.69

Q: Tell me its protein stability index on Saccharomyces cerevisiae: APLSPSAPPPPP
Result: 0.709

Q: Report protein stability index under test system Saccharomyces cerevisiae for RVRLSLDSPLGL .
Result: 0.684

Q: Param request: protein stability index | system Saccharomyces cerevisiae | item MGHLFIPSQSQS
Result: 0.715

Q: Please report protein stability index with Saccharomyces cerevisiae for item PHYCSAYTAGHG .
Result: 0.72

Q: Lab note: Saccharomyces cerevisiae assay, enter protein stability index for SPLRHIPPLHTP here
Result: 0.686

Q: Please report the measured protein stability index for GWGPWGRVGRGG tested on Saccharomyces cerevisiae.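 Note: PSI is a weighted mean of sequencing reads over stability bins, variants kept only with over 10 reads, mCherry proximal and sfGFP distal, peptide attached via GGGS linker.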
Result: 0.688

Q: Find the measured protein stability index of KKWKKKNNKRNG with Saccharomyces cerevisiae as test system.
Result: 0.707

Q: Report measured protein stability index on Saccharomyces cerevisiae; entry: PPPPPPPHSSLS
Result: 0.709
